Measured values drawn from patent US10287305B2 for this set.

# System Tested: human orexin type 2 receptor (hOX2R) (Homo sapiens (Human), UniProt O43614)
# Sequence (O43614 whole entry): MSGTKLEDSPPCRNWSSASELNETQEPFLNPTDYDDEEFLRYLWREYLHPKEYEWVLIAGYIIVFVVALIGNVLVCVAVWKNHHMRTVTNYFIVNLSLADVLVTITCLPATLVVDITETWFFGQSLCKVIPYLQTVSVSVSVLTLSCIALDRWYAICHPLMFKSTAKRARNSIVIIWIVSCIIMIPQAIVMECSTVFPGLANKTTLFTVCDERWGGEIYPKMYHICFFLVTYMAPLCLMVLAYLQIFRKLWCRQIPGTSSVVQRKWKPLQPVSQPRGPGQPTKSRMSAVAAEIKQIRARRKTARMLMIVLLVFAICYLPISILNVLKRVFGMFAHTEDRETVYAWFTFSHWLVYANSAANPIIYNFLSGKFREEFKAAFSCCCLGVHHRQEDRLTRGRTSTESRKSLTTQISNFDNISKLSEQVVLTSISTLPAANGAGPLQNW
# Test: Measurement of orexin type 2 receptor agonist activity (Experimental Example 2-1, FLIPR TETRA, intracellular Ca2+)
# Format: cell-based
# Experimental Conditions: CHO dhfr- cells expressing hOX2R, FLIPR TETRA, Fluo-4AM; read-out: Emax (%)
Reported values of Emax for individual entries
Just the number please, in %, no unit attached.

Example cases with answers are listed next.
| Molecule | Quantity Kind | Experimental Result |
| --- | --- | --- |
| CCNC(=O)N1CCC[C@H](NS(C)(=O)=O)[C@@H]1CO[C@H]1CC[C@@H](c2cccc(OC(F)(F)F)c2)CC1 (relative stereo) [Example 300] | Emax | 94 |
| COC(=O)N1CCC[C@H](NS(C)(=O)=O)[C@@H]1CO[C@H]1CC[C@@H](c2cccc(OC)c2)CC1 (relative stereo) [Example 270] | Emax | 102 |

Consider the additional molecule presented here.
(Q) Any idea what Emax was measured for CS(=O)(=O)N[C@H]1CCCN(C(=O)C2CC2)[C@H]1CO[C@H]1CC[C@@H](c2cc(F)cc(F)c2)CC1 [Example 242] ?
(A) 99

----------
# System Tested: human orexin type 2 receptor (hOX2R) (Homo sapiens (Human))
# Test: Measurement of orexin type 2 receptor agonist activity (Experimental Example 2-1, FLIPR TETRA, intracellular Ca2+)
# Format: cell-based
# Experimental Conditions: CHO dhfr- cells expressing hOX2R; agonist activity, 10 nM human orexin B = 100%
Quantity Kind: pEC50
Scale: negative log10 of molar concentration, which is what pEC50 denotes.

Take a look at these entries with their results.
| Compound | pEC50 |
| --- | --- |
| CC(C)[C@H]1CC[C@@H](OC[C@H]2[C@@H](NS(C)(=O)=O)CCCN2C(=O)C2CC(=O)C2)CC1 | 7.41 |
| CS(=O)(=O)N[C@H]1CCCN[C@H]1CO[C@H]1CC[C@@H](c2ccccc2C(F)(F)F)CC1 | 5.92 |

(Q) Which pEC50 is listed for CS(=O)(=O)N[C@H]1CCCN(C(=O)C2CC2)[C@H]1CO[C@H]1CC[C@@H](c2cccc(F)c2)CC1 ?
(A) 9.08

(Q) Field entry: CCCNC(=O)N1CCC[C@H](NS(C)(=O)=O)[C@@H]1CO[C@H]1CC[C@@H](C(C)C)CC1 (relative stereo)
(A) 8.66

(Q) // next record CC(C)[C@H]1CC[C@@H](OC[C@H]2[C@@H](NS(C)(=O)=O)CCCN2C(=O)C2CCC(=O)N2)CC1 (stereo partly shown)
(A) 5.31

(Q) Moving on to the next compound: CC(=O)N1CCC[C@H](NS(C)(=O)=O)[C@@H]1CO[C@H]1CC[C@@H](c2cccc(F)c2F)CC1
(A) 7.92

(Q) What about COC(=O)N1CCC[C@H](NS(C)(=O)=O)[C@@H]1CO[C@H]1CC[C@@H](c2cc(F)ccc2F)CC1 ?
(A) 8.70

----------
Here the recorded Emax is given for each entry.
# System Tested: human OX2 receptor (Homo sapiens (Human), UniProt O43614)
# Sequence (O43614 whole entry): as above
# Test: Measurement of orexin type 2 receptor agonist activity (Experimental Example 2-2, FDSS uCELL, calcium indicator)
# Format: cell-based
# Experimental Conditions: CHO, CHO cells expressing human OX2 receptor, DMSO = 0%, reference OX-A at 10 nM
Provide only the numeric value, understood in %.

Worked examples follow.
| Compound | Units Label | Emax |
| --- | --- | --- |
| CC(=O)N1CCC[C@H](NS(=O)(=O)C2CC2)[C@@H]1CO[C@H]1CC[C@@H](c2ccccc2)CC1 (relative stereo) [Example 354] | % | 104 |
| O=C(OCC(F)(F)F)N1CCC[C@H](NS(=O)(=O)C2CC2)[C@@H]1COC1CCN(c2ncccn2)CC1 (relative stereo) [Example 360] | % | 98 |

Next:
(Q) Fill blank: measured Emax of the compound COC(=O)N1CCC[C@H](NS(C)(=O)=O)[C@@H]1CO[C@H]1CC[C@@H](c2ccc(O)cc2)CC1 (relative stereo) [Example 345] is ____.
(A) 105

----------
# System Tested: human orexin type 2 receptor (hOX2R) (Homo sapiens (Human))
# Test: Measurement of orexin type 2 receptor agonist activity (Experimental Example 2-1, FLIPR TETRA, intracellular Ca2+)
# Type: cell-based
# Experimental Conditions: CHO dhfr- cells expressing hOX2R, FLIPR TETRA, Fluo-4AM; read-out: Emax (%)
# Excerpt: To obtain a cell clone stably expressing human orexin type 2 receptor, human orexin type 2 receptor cDNA was inserted into pcDNA3.1(+) plasmid vector (Invitrogen), and a plasmid DNA for expression of human orexin type 2 receptor (pcDNA3.1(+)/hOX2R) was cloned. The plasmid DNA was introduced into CHO-dhfr cell by an electroporation method, and human orexin type 2 receptor expressing clone cells were obtained by limiting dilution method by using G418 drug resistance as a selection marker. […]
As shown below, each of these compounds has a reported Emax value.
The reply should contain only the number, in %.

| Compound | Experimental Result |
| --- | --- |
| COC(=O)N1CCC[C@H](NS(C)(=O)=O)[C@@H]1COC1CCN(c2ccccc2Cl)CC1 (relative stereo) | 83 |
| CS(=O)(=O)N[C@H]1CCCN(C(=O)C2(C#N)CC2)[C@H]1CO[C@H]1CC[C@@H](c2ccccc2)CC1 | 93 |
| COC(=O)N1CCC[C@H](NS(C)(=O)=O)[C@@H]1COC1CCC(c2ccccc2)C1 (relative stereo) | 83 |

(Q) Requested field: Emax. Item: CCC(=O)N1CCC[C@H](NS(C)(=O)=O)[C@@H]1COC1CCN(c2ccccc2F)CC1 (relative stereo)
(A) 91

(Q) What do you get for CS(=O)(=O)N[C@H]1CCCN(C(=O)OC2CC2)[C@H]1COC1CCN(c2ncccn2)CC1 (relative stereo) ?
(A) 99

(Q) Proceed to CCC(=O)N1CCC[C@H](NS(C)(=O)=O)[C@@H]1CO[C@H]1CC[C@@H](c2ccccc2)CC1
(A) 92

(Q) COC(=O)N1CCC[C@H](NS(C)(=O)=O)[C@@H]1CO[C@H]1CC[C@@H](c2ccccc2C#N)CC1 (relative stereo) , same question.
(A) 94

(Q) Would you mind doing CCNC(=O)N1CCC[C@H](NS(C)(=O)=O)[C@@H]1CO[C@H]1CC[C@@H](c2ccc(F)cc2F)CC1 (relative stereo) as well?
(A) 100

----------
# System Tested: human orexin type 2 receptor (hOX2R) (Homo sapiens (Human), UniProt O43614)
# Test: Measurement of orexin type 2 receptor agonist activity (Experimental Example 2-1, FLIPR TETRA, intracellular Ca2+)
# Format: cell-based
# Experimental Conditions: CHO dhfr- cells expressing hOX2R, FLIPR TETRA, Fluo-4AM
Quantity Kind: EC50 (nM)
Response body: numeric value in nM, unit text excluded.

Some compounds with known EC50 results, for comparison:
| Compound | System Tested | Units Label | Experimental Result |
| --- | --- | --- | --- |
| CC(=O)N1CCC[C@H](NS(C)(=O)=O)[C@@H]1CO[C@H]1CC[C@@H](c2ccccc2C(F)F)CC1 | human orexin type 2 receptor (hOX2R) (Homo sapiens (Human), UniProt O43614) | nM | 96 |
| CS(=O)(=O)N[C@H]1CCCN(C(=O)[C@H]2CCOC2)[C@H]1CO[C@H]1CC[C@@H](c2ccccc2)CC1 | human orexin type 2 receptor (hOX2R) (Homo sapiens (Human), UniProt O43614) | nM | 25 |
| CC(=O)N1CCC[C@H](NS(C)(=O)=O)[C@@H]1COC1CCC(c2ccccc2)C1 (relative stereo) | human orexin type 2 receptor (hOX2R) (Homo sapiens (Human), UniProt O43614) | nM | 2400 |
| CS(=O)(=O)N[C@H]1CCCN(C(=O)OCC(F)(F)F)[C@H]1COC1CCN(c2ncccn2)CC1 (relative stereo) [Example 286] | human orexin type 2 receptor (hOX2R) (Homo sapiens (Human), UniProt O43614) | nM | 130 |
| CCOC(=O)N1CCC[C@H](NS(C)(=O)=O)[C@@H]1CO[C@H]1CC[C@@H](c2ccccc2)CC1 | human orexin type 2 receptor (hOX2R) (Homo sapiens (Human), UniProt O43614) | nM | 15 |

(Q) Fill in the blank: the reported EC50 of CC(=O)N1CCC[C@H](NS(C)(=O)=O)[C@@H]1CO[C@H]1CC[C@@H](c2cc(F)ccc2F)CC1 (relative stereo) [Example 198] is ____.
(A) 56

(Q) Try the compound CS(=O)(=O)N[C@H]1CCCN(C(=O)C2CCCC2)[C@H]1COC1CCN(c2ccccc2F)CC1 (relative stereo)
(A) 1500

(Q) Field entry: CC(C)OC(=O)N1CCC[C@H](NS(C)(=O)=O)[C@@H]1CO[C@H]1CC[C@@H](c2cccc(F)c2)CC1
(A) 21

(Q) Next record, please: COC(=O)N1CCC[C@H](NS(C)(=O)=O)[C@@H]1CO[C@H]1CC[C@@H](c2cccc(OC)c2)CC1 (relative stereo)
(A) 80

(Q) Request: CS(=O)(=O)N[C@H]1CCCN(C(=O)C2CC2)[C@H]1CO[C@H]1CC[C@@H](c2c(F)ccc(F)c2F)CC1
(A) 0.72
